// Cytochrome P450 3A4 (Homo sapiens, UniProt P08684) AC50 records
metric: AC50

[
  {
    "compound": "CN(Cc1ccco1)c1ncnc2ccc(-c3ccccc3C#N)cc12",
    "assayed_system": "Cytochrome P450 3A4 (Homo sapiens, UniProt P08684)",
    "metric": "AC50",
    "endpoint_value": "31.6 µM (inconclusive)"
  },
  {
    "compound": "COc1ccccc1CNc1ncncc1-c1cccc(C#N)c1",
    "assayed_system": "Cytochrome P450 3A4 (Homo sapiens, UniProt P08684)",
    "metric": "AC50",
    "endpoint_value": "0.316 µM (inconclusive)"
  },
  {
    "compound": "Nc1c2c(=O)oc(-c3ccccc3)cc2nn1-c1ccccc1",
    "assayed_system": "Cytochrome P450 3A4 (Homo sapiens, UniProt P08684)",
    "metric": "AC50",
    "endpoint_value": "25.1 µM (inconclusive)"
  },
  {
    "compound": "CC(=O)c1cc(CC=C(C)C)c(O)cc1O",
    "assayed_system": "Cytochrome P450 3A4 (Homo sapiens, UniProt P08684)",
    "metric": "AC50",
    "endpoint_value": "1.41 µM (inconclusive)"
  },
  {
    "compound": "CC(C)N1C(=O)/C(=C\\c2c[nH]c3ccccc23)S/C1=N\\c1ccccc1",
    "assayed_system": "Cytochrome P450 3A4 (Homo sapiens, UniProt P08684)",
    "metric": "AC50",
    "endpoint_value": "22.4 µM (inconclusive)"
  },
  {
    "compound": "O=C(N[C@@H](Cc1ccccc1)C(=O)CCl)OCc1ccccc1",
    "assayed_system": "Cytochrome P450 3A4 (Homo sapiens, UniProt P08684)",
    "metric": "AC50",
    "endpoint_value": "1.26 µM (inconclusive)"
  },
  {
    "compound": "COCCn1c(=O)c(-c2cccc(F)c2)nc2cncnc21",
    "assayed_system": "Cytochrome P450 3A4 (Homo sapiens, UniProt P08684)",
    "metric": "AC50",
    "endpoint_value": "15.8 µM (inconclusive)"
  },
  {
    "compound": "Cc1cc(C)c(S(=O)(=O)N2CCN(c3ccc([N+](=O)[O-])c(NCC4CCCO4)c3)CC2)c(C)c1 (stereo not given)",
    "assayed_system": "Cytochrome P450 3A4 (Homo sapiens, UniProt P08684)",
    "metric": "AC50",
    "endpoint_value": "3.55 µM (inconclusive)"
  },
  {
    "compound": "O=C1[C@H]2[C@H]3[C@H](O)[C@H](O)C/C(=N/OC[C@@H](O)COCc4ccco4)[C@@H]3CC[C@@H]2C(=O)N1C1CCCCC1",
    "assayed_system": "Cytochrome P450 3A4 (Homo sapiens, UniProt P08684)",
    "metric": "AC50",
    "endpoint_value": "5.01 µM (inconclusive)"
  },
  {
    "compound": "Cc1c(NC(=O)NC(C)N2C(=O)C3C4C=CC(C4)C3C2=O)c(=O)n(-c2ccccc2)n1C (stereo not given)",
    "assayed_system": "Cytochrome P450 3A4 (Homo sapiens, UniProt P08684)",
    "metric": "AC50",
    "endpoint_value": "25.1 µM (inconclusive)"
  },
  {
    "compound": "Cc1cccc(-n2nnc3cnn(C)c3c2=O)c1",
    "assayed_system": "Cytochrome P450 3A4 (Homo sapiens, UniProt P08684)",
    "metric": "AC50",
    "endpoint_value": "31.6 µM (inconclusive)"
  },
  {
    "compound": "O=C(Nc1cccn(Cc2c(Cl)cccc2Cl)c1=O)c1ccc(Cl)cc1Cl",
    "assayed_system": "Cytochrome P450 3A4 (Homo sapiens, UniProt P08684)",
    "metric": "AC50",
    "endpoint_value": "14.1 µM (inconclusive)"
  },
  {
    "compound": "CN(C)c1ncc2nc(-c3ccccc3)c(=O)n(Cc3cccs3)c2n1",
    "assayed_system": "Cytochrome P450 3A4 (Homo sapiens, UniProt P08684)",
    "metric": "AC50",
    "endpoint_value": "15.8 µM (inconclusive)"
  },
  {
    "compound": "O=C(c1cnccn1)N1CCC2(CC1)CN(c1cccc(-c3ccccc3)c1)C2",
    "assayed_system": "Cytochrome P450 3A4 (Homo sapiens, UniProt P08684)",
    "metric": "AC50",
    "endpoint_value": "39.8 µM (inconclusive)"
  },
  {
    "compound": "O=C(c1cccc(F)c1)N1CCC2(CCCN(c3ccc(-c4ccccc4)cc3)C2)CC1",
    "assayed_system": "Cytochrome P450 3A4 (Homo sapiens, UniProt P08684)",
    "metric": "AC50",
    "endpoint_value": "12.6 µM (inconclusive)"
  },
  {
    "compound": "CCSc1c(C(=O)NC)ccc2c1C(=O)c1ccccc1C2=O",
    "assayed_system": "Cytochrome P450 3A4 (Homo sapiens, UniProt P08684)",
    "metric": "AC50",
    "endpoint_value": "12.6 µM (inconclusive)"
  },
  {
    "compound": "COc1ccc(-c2cc(C(F)(F)F)n3ncc(C(=O)NCC4CCCO4)c3n2)cc1OC (stereo not given)",
    "assayed_system": "Cytochrome P450 3A4 (Homo sapiens, UniProt P08684)",
    "metric": "AC50",
    "endpoint_value": "3.55 µM (inconclusive)"
  },
  {
    "compound": "COc1ccc(NC(=O)c2ccc(-c3ccc(-c4noc(C)n4)cc3C)cc2)cc1OCCN(C)C",
    "assayed_system": "Cytochrome P450 3A4 (Homo sapiens, UniProt P08684)",
    "metric": "AC50",
    "endpoint_value": "15.8 µM (inconclusive)"
  },
  {
    "compound": "CCCc1ccc(-c2cc(C(=O)NN3CCOCC3)c3ccccc3n2)cc1",
    "assayed_system": "Cytochrome P450 3A4 (Homo sapiens, UniProt P08684)",
    "metric": "AC50",
    "endpoint_value": "12.6 µM (inconclusive)"
  },
  {
    "compound": "Cn1c(=O)cnc2cnc(Nc3ccccc3)nc21",
    "assayed_system": "Cytochrome P450 3A4 (Homo sapiens, UniProt P08684)",
    "metric": "AC50",
    "endpoint_value": "25.1 µM (inconclusive)"
  }
]
